Experimental system: pooled human IgG (human IgG1, 2, 3 and 4)
Reported property: Enzyme Activity Endpoint Assay: Fab′2 (ng/µL)

Protein	Meas value
PRT-479 (protein) MITSVWTKGVTPPTDFIYGEDVLHAPYKAGQGWYDITKAFDGGDDLLCGAATAGNMLHWWFDQNKEQIENYLKKHPEKQKINFNGEQMFDVKEAIDTKDSQTNSELFNYFKEKAFPYLSTKHLGVFPDHVIDMFINGYRLSLTNHGPTPVKRQEKDPRGGIFDAVFGRGDQTKLLTNRHDLKNKTLNEISQLIKQELTEGKALGISHTYANVRINHVINLWGADFDAEGNLEAIYVTDSDSNASIGMKKYFVGVNSNGKVAISAKEIEEDNIGAQVLGLFTLSTGQKIWNKTNLEHHHHHH	1340
